# Tested on: DeltatarO mutant
# Assay Notes: S. aureus survival, RN4220 and DeltatarO strains – OD600, teichoic acid synthesis inhibitors, primary screen (AID 463173)
# Measurement Context: S. aureus RN4220 wild type/DeltatarO growth, OD600, 18 h, active compounds read low, screened at 18.75 µg/mL (by protocol)
Among all 52,000 compounds or so, about 4,300 (8.3%) were called active. For the sample, actives were picked, then their nearest neighbours and some compounds at random.

Molecule: COc1cccc(CCNC(=O)Cn2c(-c3cccs3)cc3ccccc32)c1
Target Entity: DeltatarO mutant
survival: 70% (inactive)

Molecule: CCOc1cc(-c2nnc(SCC(=O)NCc3ccc(C)cc3)nc2-c2ccc(OC)c(OCC)c2)ccc1OC
Target Entity: DeltatarO mutant
survival: 78% (inactive)

Molecule: Cc1cc(F)ccc1NC(=O)Cn1nc(N2CCN(c3ccccc3)CC2)ccc1=O
Target Entity: DeltatarO mutant
survival: 80% (inactive)

Molecule: O=C(CN1CCCN(Cc2cccc(F)c2)S1(=O)=O)Nc1ccc2c(c1)OCCO2
Target Entity: DeltatarO mutant
survival: 80% (inactive)

Molecule: CC1CCc2c(sc(NC(=O)c3cc4nc(-c5ccc(Cl)cc5)cc(C(F)(F)F)n4n3)c2C#N)C1 (stereo not given)
Target Entity: DeltatarO mutant
survival: 91% (inactive)
